System: 922993-354-T-J3-PDC complex spheroids, viability;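 further: spheroids exposed to compounds for seven days; 100% = DMSO vehicle control viability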
METHOD_NOTES: Anticancer human tumor 922993-354-T-J3-PDC patient-derived endometrial carcinoma cell line growth inhibition [GQUAD]
RUN_PARAMETERS: second compound 0.0316 µM; first compound 0.1 µM; stronger effect = lower value
As shown below, each of these compounds has a reported viability, T/C value.
Numeric only. Scale: %

| COMPOUND | viability, T/C [%] |
| --- | --- |
| CCCS(=O)(=O)Nc1ccc(F)c(C(=O)c2c[nH]c3ncc(-c4ccc(Cl)cc4)cc23)c1F + CN(C)c1ccc(Nc2c3ccc(NC(=O)CCN4CCCC4)cc3nc3cc(NC(=O)CCN4CCCC4)ccc23)cc1 | 94.2 |
| CC1COCCN1c1cc(C2(S(C)(=N)=O)CC2)nc(-c2ccnc3[nH]ccc23)n1 (centres undefined) + CN(C)c1ccc(Nc2c3ccc(NC(=O)CCN4CCCC4)cc3nc3cc(NC(=O)CCN4CCCC4)ccc23)cc1 | 124 |
| COc1ccc([C@@H](O)c2cc(-c3ncnc4cc(N5CCOCC5)ccc34)c(F)cc2Cl)nn1 + CN(C)c1ccc(Nc2c3ccc(NC(=O)CCN4CCCC4)cc3nc3cc(NC(=O)CCN4CCCC4)ccc23)cc1 | 111 |
| C=CCn1c(=O)c2cnc(Nc3ccc(N4CCN(C)CC4)cc3)nc2n1-c1cccc(C(C)(C)O)n1 + Cc1cnc(CNC(=O)c2c(=O)c3ccc(N4CCCN(C)CC4)nc3n3c2sc2ccccc23)cn1 | 70.7 |
| COc1ncnc(C2CC2)c1-c1ncc2cnn(Cc3ccc(-c4nc(C(F)(F)F)cn4C(C)C)cc3)c2n1 + Cc1[nH]c2ccc(F)cc2c1-c1nc2c3cccnc3c3ncccc3c2[nH]1 | 87.3 |

Consider CC(C)n1c(=O)n(C)c2cnc3cc(F)c(-c4ccc(OCCCN5CCCCC5)nc4)cc3c21 + Cc1cnc(CNC(=O)c2c(=O)c3ccc(N4CCCN(C)CC4)nc3n3c2sc2ccccc23)cn1 . Its measured viability, T/C is 75

Consider CC(=O)O[C@H]1C(=O)[C@@]2(C)[C@H]([C@H](OC(=O)c3ccccc3)[C@]3(O)C[C@H](OC(=O)[C@H](O)[C@@H](NC(=O)c4ccccc4)c4ccccc4)C(C)=C1C3(C)C)[C@]1(OC(C)=O)CO[C@@H]1C[C@@H]2O + Cc1[nH]c2ccc(F)cc2c1-c1nc2c3cccnc3c3ncccc3c2[nH]1 . Its measured viability, T/C is 84.6

Consider CC(=O)O[C@H]1C(=O)[C@@]2(C)[C@H]([C@H](OC(=O)c3ccccc3)[C@]3(O)C[C@H](OC(=O)[C@H](O)[C@@H](NC(=O)c4ccccc4)c4ccccc4)C(C)=C1C3(C)C)[C@]1(OC(C)=O)CO[C@@H]1C[C@@H]2O + Cc1cnc(CNC(=O)c2c(=O)c3ccc(N4CCCN(C)CC4)nc3n3c2sc2ccccc23)cn1 . Its measured viability, T/C is 79.3

Consider COc1cc(C2c3cc4c(cc3C(OC3OC5COC(C)OC5C(O)C3O)C3COC(=O)C23)OCO4)cc(OC)c1O (centres undefined) + Cc1[nH]c2ccc(F)cc2c1-c1nc2c3cccnc3c3ncccc3c2[nH]1 . Its measured viability, T/C is 89.1

Consider CC(C)n1c(=O)n(C)c2cnc3cc(F)c(-c4ccc(OCCCN5CCCCC5)nc4)cc3c21 + CN(C)c1ccc(Nc2c3ccc(NC(=O)CCN4CCCC4)cc3nc3cc(NC(=O)CCN4CCCC4)ccc23)cc1 . Its measured viability, T/C is 84.9

Consider CC(C)(O)C1CCC(Nc2ccc3ncc(-c4cccc(C(F)(F)F)c4)n3n2)CC1 (centres undefined) + Cc1cnc(CNC(=O)c2c(=O)c3ccc(N4CCCN(C)CC4)nc3n3c2sc2ccccc23)cn1 . Its measured viability, T/C is 97.4

Consider COc1cccc2c1C(=O)c1c(O)c3c(c(O)c1C2=O)CC(O)(C(=O)CO)CC3OC1CC(N)C(O)C(C)O1 (centres undefined) + Cc1[nH]c2ccc(F)cc2c1-c1nc2c3cccnc3c3ncccc3c2[nH]1 . Its measured viability, T/C is 114

Consider COc1ncnc(C2CC2)c1-c1ncc2cnn(Cc3ccc(-c4nc(C(F)(F)F)cn4C(C)C)cc3)c2n1 + Cc1cnc(CNC(=O)c2c(=O)c3ccc(N4CCCN(C)CC4)nc3n3c2sc2ccccc23)cn1 . Its measured viability, T/C is 72.7

Consider COc1cc(C2c3cc4c(cc3C(OC3OC5COC(C)OC5C(O)C3O)C3COC(=O)C23)OCO4)cc(OC)c1O (centres undefined) + CN(C)c1ccc(Nc2c3ccc(NC(=O)CCN4CCCC4)cc3nc3cc(NC(=O)CCN4CCCC4)ccc23)cc1 . Its measured viability, T/C is 90

Value source: PubChem BioAssay AID2060489
